Reference source for all entries: ChEMBL document CHEMBL1201862

System: UACC-257
PROCEDURE TEXT: NCI tumour cell line growth inhibition, 48 h
Active and inactive are the calls of the source. No stated cut-off is given here; in the data, active = GI50 up to about 1.1 µM and inactive = higher.
ATTRIBUTE MEASURED: GI50

Reference set, count: 3
INSERT INTO assay_data (compound, target_under_test, attribute_measured, experimental_value) VALUES
  ('NC(=O)Nc1ccc(C(=O)NCCCNC(=O)c2ccc(NC(N)=O)cc2)cc1', 'UACC-257', 'GI50', '> 100 µM (inactive)'),
  ('COc1cccc(C(=O)O[C@H]2[C@@H]3[C@]4(OC(C)=O)CO[C@@H]4C[C@H](O)[C@@]3(C)C(=O)[C@H](OC(C)=O)C3=C(C)[C@@H](OC(=O)[C@H](O)[C@@H](NC(=O)OC(C)(C)C)c4ccco4)C[C@]2(O)C3(C)C)c1', 'UACC-257', 'GI50', '21.3 µM (inactive)'),
  ('COc1cc(C2C3=C(COC3=O)OC(C)(C)Oc3cc4c(cc32)OCO4)cc(OC)c1O (centres undefined)', 'UACC-257', 'GI50', '5.14 µM (inactive)');

input: # lookup: GI50 of `COC(=O)C1=NN2c3ccccc3CN([C@@H](C)c3ccccc3)C(=O)[C@@H]2C1`
output: 30.5 µM (inactive)

----------
System: SK-MEL-5
PROCEDURE TEXT: NCI tumour cell line growth inhibition, 48 h
Activity calls are given as the source filed them. Rule as the data show it: active = GI50 up to about 1.1 µM and inactive = higher.
ATTRIBUTE MEASURED: GI50

INSERT INTO assay_data (compound, target_under_test, attribute_measured, experimental_value) VALUES
  ('CC(=O)OC/C=C\Cn1nc(Br)c(=O)[nH]c1=O', 'SK-MEL-5', 'GI50', '14.6 µM (inactive)');

input: # lookup: GI50 of CCCCCCCCP(=O)(O)OP(=O)(O)OCC1OC(n2ccc(N)nc2=O)C(O)C1O (stereo not drawn)
output: > 100 µM (inactive)

input: # lookup: GI50 of C=C(C)C1CC=C(C)CC1 (stereo not drawn)
output: 849 µM (inactive)

input: # lookup: GI50 of `O=C1Nc2ccc([N+](=O)[O-])cc2/C1=N/NC(=S)Nc1ccccc1`
output: 2.9 µM (inactive)

input: # lookup: GI50 of `Oc1cccc(-c2nc3cc(F)ccc3s2)c1`
output: 10.7 µM (inactive)

input: # lookup: GI50 of `CCOC(=O)N1CCN(C(=O)Nc2cccc3ccccc23)CC1`
output: > 10 µM (inactive)

input: # lookup: GI50 of `CS(=O)(=O)NNS(=O)(=O)c1ccc(F)cc1`
output: > 100 µM (inactive)

input: # lookup: GI50 of CC(C)C1CCC(=O)CC1CCCCC1CC(=O)CC1O[Si](C)(C)C(C)(C)C (stereo not drawn)
output: 3.05 µM (inactive)

input: # lookup: GI50 of CCCCC1C(=O)N(c2ccc(S(=O)(=O)Nc3ccccn3)cc2)N(c2ccc(O)c(C(=O)O)c2)C1=O (stereo not drawn)
output: > 100 µM (inactive)

input: # lookup: GI50 of `CC(=O)C1=C(O)/C(=C\c2ccco2)OC1=O`
output: > 10 µM (inactive)

input: # lookup: GI50 of `Cc1nc(O)nc(N(CCO)/N=C/c2ccc(Cl)cc2)c1C(=O)Nc1ccc(Cl)cc1`
output: > 100 µM (inactive)

input: # lookup: GI50 of `C[C@H](CN1CC(=O)NC(=O)C1)N1CC(=O)NC(=O)C1`
output: > 100 µM (inactive)

input: # lookup: GI50 of `Cc1nc(C)c(N2CCN(CN)CC2)c(O)n1`
output: > 100 µM (inactive)

input: # lookup: GI50 of `O=C(NS(=O)(=O)Nc1ccc(Cl)cc1)OCc1ccc(Cl)cc1Cl`
output: 17.8 µM (inactive)

input: # lookup: GI50 of `Cc1oc2c(C)c(O)c3c(c2c1C1(C)OCCO1)C(=O)C=C(Cl)C3=O`
output: > 100 µM (inactive)

input: # lookup: GI50 of `Cn1c(-c2ccccc2)cc(-c2ccc3c(c2)OCO3)c1-c1ccsc1`
output: > 100 µM (inactive)

input: # lookup: GI50 of `Oc1ccc2ccccc2c1/C=C/c1ccc2c(Br)cc(Br)c(O)c2n1`
output: 3.36 µM (inactive)

input: # lookup: GI50 of `CC(C)(C)c1cc(C(C)(C)C)c2sc(=O)oc2c1O`
output: 14.4 µM (inactive)

input: # lookup: GI50 of Cc1nc2ccc(NC3OCC(O)C(O)C3O)cc2c(=O)n1-c1ccccc1 (stereo not drawn)
output: > 100 µM (inactive)

input: # lookup: GI50 of `NC(=O)Nc1c([N+](=O)[O-])cc(C(F)(F)F)cc1[N+](=O)[O-]`
output: 49.3 µM (inactive)
